# Assay Target: CYP3A4 (Homo sapiens, UniProt P08684)
# Sequence (P08684 whole entry): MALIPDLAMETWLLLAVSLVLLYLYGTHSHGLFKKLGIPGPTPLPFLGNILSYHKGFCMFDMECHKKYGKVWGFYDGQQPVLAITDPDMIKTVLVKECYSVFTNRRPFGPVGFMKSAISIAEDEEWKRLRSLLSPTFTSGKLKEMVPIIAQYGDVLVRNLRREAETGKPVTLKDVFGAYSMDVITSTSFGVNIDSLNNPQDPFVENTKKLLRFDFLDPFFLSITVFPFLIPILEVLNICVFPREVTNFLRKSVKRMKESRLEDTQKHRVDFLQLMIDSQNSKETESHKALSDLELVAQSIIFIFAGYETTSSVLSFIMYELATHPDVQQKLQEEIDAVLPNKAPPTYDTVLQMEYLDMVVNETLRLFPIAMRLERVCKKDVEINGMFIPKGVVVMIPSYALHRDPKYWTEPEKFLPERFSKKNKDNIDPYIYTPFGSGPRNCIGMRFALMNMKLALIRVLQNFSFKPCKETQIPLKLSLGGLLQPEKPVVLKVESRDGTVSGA
Checkbox rule: AC50 lower than 20 µM = fulfilled; AC50 not lower than 20 µM = not fulfilled.

See these solved cases before continuing.
>  <Molecule>
C=Cc1ccc(S(=O)(=O)[O-])cc1.[Na+] [Sodium 4-vinylbenzenesulfonate]

>  <Class Name>
not fulfilled

$$$$
>  <Molecule>
CCCCCCCCCCCCCC[N+](C)(C)Cc1ccccc1.O.O.[Cl-]

>  <Class Name>
fulfilled

$$$$
>  <Molecule>
O=C(Cl)c1cc(Cl)cc(Cl)c1 [3,5-Dichlorobenzoyl chloride]

>  <Class Name>
not fulfilled

$$$$
>  <Molecule>
CC(C)CC(O)Cc1ccccc1 (stereo not drawn)

>  <Class Name>
not fulfilled

$$$$
>  <Molecule>
CCCCCCCCS(=O)(=O)Cl [1-Octanesulfonyl chloride]

>  <Class Name>
not fulfilled

$$$$

Would you kindly verify if AC50 of CCOC(=O)COc1ccc2c(C)c(CCN(CC)CC)c(=O)oc2c1Cl.Cl [Cloricromen hydrochloride] is strictly less than 20 µM?
fulfilled

Would you kindly verify if AC50 of O=S(=O)(Oc1ccc(Cl)cc1)c1ccccc1 is strictly less than 20 µM?
fulfilled

Would you kindly verify if AC50 of O=C(Cl)c1ccc(F)c(Cl)c1 [3-Chloro-4-fluorobenzoyl chloride] is strictly less than 20 µM?
not fulfilled

Would you kindly verify if AC50 of CC(C)C(=O)OCCOc1ccccc1 [Phenoxyethyl isobutyrate] is strictly less than 20 µM?
not fulfilled

Would you kindly verify if AC50 of COCC(=O)N(c1c(C)cccc1C)[C@H](C)C(=O)OC [Metalaxyl-M] is strictly less than 20 µM?
not fulfilled
